# Tested on: SYO-1 complex spheroid growth, percent test/control
# Assay notes: Anticancer human tumor SYO-1 cell line growth inhibition [Asc];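 further: compound exposure lasted 7 days after spheroids grew 3 days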;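 on viability, T/C: 100% = DMSO vehicle control viability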
# Conditions: second compound 3 µM; first compound 0.1 µM; stronger effect = lower value
Test readout: viability, T/C (%)
All answers are understood in %, so give the number only.

Compound	Unit tag	viability, T/C
C#Cc1c(F)ccc2cc(O)cc(-c3ncc4c(N5CC6CCC(C5)N6)nc(OCC56CCCN5CC(F)C6)nc4c3F)c12 (stereo not given) + CCN1C(C(=O)NC23CCC(C(=O)O)(CC2)CC3)C(c2cccc(Cl)c2F)C2(C(=O)Nc3cc(Cl)ccc32)C12CCCCC2	%	1.17

Query compound follows.
[ask] Can you share its viability, T/C? I mean this compound: CNC(C)C(=O)NC1CN(S(=O)(=O)c2cccc(S(=O)(=O)N3CCC4CCC(C(=O)NC(c5ccccc5)c5ccccc5)N4C(=O)C(NC(=O)C(C)NC)C3)c2)CCC2CCC(C(=O)NC(c3ccccc3)c3ccccc3)N2C1=O (stereo not given) + CCN1C(C(=O)NC23CCC(C(=O)O)(CC2)CC3)C(c2cccc(Cl)c2F)C2(C(=O)Nc3cc(Cl)ccc32)C12CCCCC2
[reply] 1.16

* * *

Form field: IC50 (one value per entry).
# Tested on: SYO-1 complex spheroid growth, percent test/control
# Assay notes: Anticancer human tumor SYO-1 cell line growth inhibition [Asc];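 further: compound exposure lasted 7 days after spheroids grew 3 days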
# Conditions: curve of compound
# From the text: Multicellular complex tumor spheroid response to apoptosis pathway targeting inhibitors Alrizomadlin, Pelcitoclax, and Dasminapant in combination with a variety of drugs and investigational agents in selected tumor cell lines […] Compounds. […] If the clinical Cmax for an agent had not been determined, the highest concentration tested was 10 microM. […]

Compound	Assay target	IC50
CCN1CCN(Cc2ccc(Nc3ncc(F)c(-c4cc(F)c5nc(C)n(C(C)C)c5c4)n3)nc2)CC1	SYO-1 complex spheroid growth, percent test/control	> 1000 nM

[ask] Can you share its IC50? I mean this compound: C=CC(=O)N1CCN(c2nc(=O)n(-c3c(C)ccnc3C(C)C)c3nc(-c4c(O)cccc4F)c(F)cc23)C(C)C1 (configuration not stated)
[reply] > 10000 nM

[ask] Repeat for the following compound: Cc1nc(N2CCC3(CC2)COC(C)C3N)c(CO)nc1Sc1ccnc(N)c1Cl (configuration not stated)
[reply] > 3000 nM

[ask] Repeat for the following compound: C#Cc1c(F)ccc2cc(O)cc(-c3ncc4c(N5CC6CCC(C5)N6)nc(OCC56CCCN5CC(F)C6)nc4c3F)c12 (configuration not stated)
[reply] > 10000 nM

[ask] Repeat for the following compound: CNC(C)C(=O)NC1CN(S(=O)(=O)c2cccc(S(=O)(=O)N3CCC4CCC(C(=O)NC(c5ccccc5)c5ccccc5)N4C(=O)C(NC(=O)C(C)NC)C3)c2)CCC2CCC(C(=O)NC(c3ccccc3)c3ccccc3)N2C1=O (configuration not stated)
[reply] > 1000 nM

[ask] Repeat for the following compound: `O=C(c1ccc(F)c(F)c1Nc1ccc(I)cc1F)N1CC(O)([C@@H]2CCCCN2)C1`
[reply] > 1000 nM

[ask] Repeat for the following compound: NC1CCC(NC2CC2c2ccccc2)CC1 (configuration not stated)
[reply] > 100 nM

* * *

Form field: viability, T/C (one value per entry).
# Test system: SYO-1 complex spheroid growth, percent test/control
# Assay notes: Anticancer human tumor SYO-1 cell line growth inhibition [Asc];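 further: compound exposure lasted 7 days after spheroids grew 3 days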;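 on viability, T/C: 100% = DMSO vehicle control viability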
# Conditions: second compound 0.316 µM; first compound 0.0316 µM; stronger effect = lower value
All answers are understood in %, so give the number only.

Below are worked cases with known answers.
Compound	viability, T/C / %
COc1c(OCCCN2CCOCC2)ccc2c3n(c(=NC(=O)c4cnc(N)nc4)nc12)CCN3 + CNC(C)C(=O)NC1CN(S(=O)(=O)c2cccc(S(=O)(=O)N3CCC4CCC(C(=O)NC(c5ccccc5)c5ccccc5)N4C(=O)C(NC(=O)C(C)NC)C3)c2)CCC2CCC(C(=O)NC(c3ccccc3)c3ccccc3)N2C1=O	116
Cn1ncnc1[C@H]1c2n[nH]c(=O)c3cc(F)cc(c23)N[C@@H]1c1ccc(F)cc1 + Cc1c(S(C)(=O)=O)c(-c2cc(F)cc(N3CCN(c4ccc(NS(=O)(=O)c5ccc(NC(CCN6CCC(C(=O)OCCCP(=O)(O)O)CC6)CSc6ccccc6)c(S(=O)(=O)C(F)(F)F)c5)cc4)CC3)c2)c(-c2ccc(Cl)cc2)n1C(C)C	9.3
C=CC(=O)N1CCN(c2nc(=O)n(-c3c(C)ccnc3C(C)C)c3nc(-c4c(O)cccc4F)c(F)cc23)C(C)C1 (stereo unspecified) + Cc1c(S(C)(=O)=O)c(-c2cc(F)cc(N3CCN(c4ccc(NS(=O)(=O)c5ccc(NC(CCN6CCC(C(=O)OCCCP(=O)(O)O)CC6)CSc6ccccc6)c(S(=O)(=O)C(F)(F)F)c5)cc4)CC3)c2)c(-c2ccc(Cl)cc2)n1C(C)C	98.3
NC1CCC(NC2CC2c2ccccc2)CC1 (stereo unspecified) + Cc1c(S(C)(=O)=O)c(-c2cc(F)cc(N3CCN(c4ccc(NS(=O)(=O)c5ccc(NC(CCN6CCC(C(=O)OCCCP(=O)(O)O)CC6)CSc6ccccc6)c(S(=O)(=O)C(F)(F)F)c5)cc4)CC3)c2)c(-c2ccc(Cl)cc2)n1C(C)C	89.1
CCN1CCN(Cc2ccc(Nc3ncc(F)c(-c4cc(F)c5nc(C)n(C(C)C)c5c4)n3)nc2)CC1 + CNC(C)C(=O)NC1CN(S(=O)(=O)c2cccc(S(=O)(=O)N3CCC4CCC(C(=O)NC(c5ccccc5)c5ccccc5)N4C(=O)C(NC(=O)C(C)NC)C3)c2)CCC2CCC(C(=O)NC(c3ccccc3)c3ccccc3)N2C1=O	108

Query compound follows.
[ask] Report viability, T/C for C=CC(=O)N1CCN(c2nc(=O)n(-c3c(C)ccnc3C(C)C)c3nc(-c4c(O)cccc4F)c(F)cc23)C(C)C1 (stereo unspecified) + CNC(C)C(=O)NC1CN(S(=O)(=O)c2cccc(S(=O)(=O)N3CCC4CCC(C(=O)NC(c5ccccc5)c5ccccc5)N4C(=O)C(NC(=O)C(C)NC)C3)c2)CCC2CCC(C(=O)NC(c3ccccc3)c3ccccc3)N2C1=O tested on SYO-1 complex spheroid growth, percent test/control.
[reply] 96.6
